# collection of IC50 values tested on 5-hydroxytryptamine receptor 1B (Rattus norvegicus)
# Sequence (P28564 whole entry): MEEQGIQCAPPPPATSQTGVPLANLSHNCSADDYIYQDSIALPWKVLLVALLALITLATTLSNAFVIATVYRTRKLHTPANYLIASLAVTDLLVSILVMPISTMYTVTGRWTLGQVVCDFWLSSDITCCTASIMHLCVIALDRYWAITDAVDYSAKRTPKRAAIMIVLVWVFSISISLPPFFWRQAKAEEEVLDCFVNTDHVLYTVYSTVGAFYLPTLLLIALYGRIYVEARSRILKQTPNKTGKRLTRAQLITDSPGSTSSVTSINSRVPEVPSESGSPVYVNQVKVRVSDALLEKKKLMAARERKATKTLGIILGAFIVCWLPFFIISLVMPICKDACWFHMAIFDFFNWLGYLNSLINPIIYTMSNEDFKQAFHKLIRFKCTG
Give just the numeric value; nM need not be written.

{"lineNotation": "COc1ccc2[nH]c(C)c(C3=CCNCC3)c2c1", "unitDescriptor": "nM", "IC50": 310}

Now turn to the next compound.
// query GET IC50 | system: 5-hydroxytryptamine receptor 1B (Rattus norvegicus) | item: Cc1[nH]c2ccc(Cl)cc2c1C1=CCNCC1
// result 180

----------
- targetEntity: 5-hydroxytryptamine receptor 2A (Homo sapiens)
- Sequence (P28223 whole entry): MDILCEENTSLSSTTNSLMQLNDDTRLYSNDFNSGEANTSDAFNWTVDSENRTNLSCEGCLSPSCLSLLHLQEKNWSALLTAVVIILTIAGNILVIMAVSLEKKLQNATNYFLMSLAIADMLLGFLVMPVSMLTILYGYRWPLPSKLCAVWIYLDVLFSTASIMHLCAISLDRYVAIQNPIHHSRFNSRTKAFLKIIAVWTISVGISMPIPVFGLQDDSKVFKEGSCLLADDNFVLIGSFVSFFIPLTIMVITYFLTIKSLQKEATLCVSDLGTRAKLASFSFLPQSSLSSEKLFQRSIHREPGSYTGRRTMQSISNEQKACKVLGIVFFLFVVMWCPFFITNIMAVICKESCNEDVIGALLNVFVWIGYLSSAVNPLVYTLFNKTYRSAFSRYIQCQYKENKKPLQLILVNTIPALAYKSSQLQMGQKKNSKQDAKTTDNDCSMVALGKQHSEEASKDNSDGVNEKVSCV
Recorded pIC50 by entry
On this scale, pIC50 is minus log10 of a concentration expressed in M (mol/L).

{"lineNotation": "Cc1[nH]c2ccc(Cl)cc2c1C1=CCNCC1", "targetEntity": "5-hydroxytryptamine receptor 2A (Homo sapiens)", "reportedProperty": "pIC50", "resultNumber": 6.62}

// query # return recorded pIC50 for input CCc1[nH]c2ccc(OC)cc2c1CCN(C)C
// result 6.21
